System: HT29 colon cancer cells
Assay Protocol: MTT cytotoxicity assay, HT29
Type: cell-based, human
Cond: HT29, 72 h, mean ± SD n = 3
Measured Endpoint: IC50

Past entries and their recorded results:
- Substance: "[RuCp(mTPPMSNa)(bopy)][CF3SO3] [Compound 6]"
  IC50: "72.4 µM"
- Substance: "[RuCp(mTPPMSNa)(pbt)][CF3SO3] [Compound 8]"
  IC50: "11.3 µM"

Note IC50 for the substance shown: [RuCp(mTPPMSNa)(dpk)][CF3SO3] [Compound 7]
> 100 µM

---

Would you kindly list S(H2O) for each of these substances?
Assay Protocol: Solubility in water
Type: physicochemical
Cond: in presence of air, 25 °C, value in brackets
Numbers only, in M.

- Substance: "[RuCp(mTPPMSNa)2(1-BI)][CF3SO3] [Compound 2]"
  Unit Descriptor: "M"
  Measurement: 0.039
- Substance: "[RuCp(mTPPMSNa)(dpk)][CF3SO3] [Compound 7]"
  Unit Descriptor: "M"
  Measurement: 0.019
- Substance: "[RuCp(mTPPMSNa)2(1-BuIm)][CF3SO3] [Compound 3]"
  Unit Descriptor: "M"
  Measurement: 0.043
- Substance: "[RuCp(mTPPMSNa)(bopy)][CF3SO3] [Compound 6]"
  Unit Descriptor: "M"
  Measurement: 0.015

Now for a further substance.
Give the reported value of S(H2O) for this record: [RuCp(mTPPMSNa)(pbt)][CF3SO3] [Compound 8]
0.02

---

Provide the reported S(H2O) of each item.
Assay Protocol: Solubility in water
Format: physicochemical
Cond: in presence of air, 25 °C
Answers are plain numbers, in mg/mL.

Sample records with S(H2O):
- Substance: "[RuCp(mTPPMSNa)2(1-BI)][CF3SO3] [Compound 2]"
  S(H2O) [mg/mL]: 38.6
- Substance: "[RuCp(mTPPMSNa)(dpk)][CF3SO3] [Compound 7]"
  S(H2O) [mg/mL]: 19.3
- Substance: "[RuCp(mTPPMSNa)(pbt)][CF3SO3] [Compound 8]"
  S(H2O) [mg/mL]: 20.0
- Substance: "[RuCp(mTPPMSNa)(bopy)][CF3SO3] [Compound 6]"
  S(H2O) [mg/mL]: 15.3

Tell me its S(H2O) given [RuCp(mTPPMSNa)2(1-BuIm)][CF3SO3] [Compound 3] as the entry.
42.8
